Cited source: paper PMC5854672

assay-target: T1, mSlo1/β4(N123A) channel (mouse | human, UniProt Q08460 1-1209; Q86W47 1-210, N123A)
T1 construct: mSlo1, BK channel α subunit (KCNMA1) of mouse, full-length cDNA, GenBank HQ221747.1; human BK channel β4 subunit (KCNMB4), full-length cDNA, GenBank AF207992.1; source: HEK293, transiently co-transfected (pcDNA3.1(+)), in excised membrane patches; copies: 4 + 4
T1 sequence (Q08460 whole entry, chain 1 of 2): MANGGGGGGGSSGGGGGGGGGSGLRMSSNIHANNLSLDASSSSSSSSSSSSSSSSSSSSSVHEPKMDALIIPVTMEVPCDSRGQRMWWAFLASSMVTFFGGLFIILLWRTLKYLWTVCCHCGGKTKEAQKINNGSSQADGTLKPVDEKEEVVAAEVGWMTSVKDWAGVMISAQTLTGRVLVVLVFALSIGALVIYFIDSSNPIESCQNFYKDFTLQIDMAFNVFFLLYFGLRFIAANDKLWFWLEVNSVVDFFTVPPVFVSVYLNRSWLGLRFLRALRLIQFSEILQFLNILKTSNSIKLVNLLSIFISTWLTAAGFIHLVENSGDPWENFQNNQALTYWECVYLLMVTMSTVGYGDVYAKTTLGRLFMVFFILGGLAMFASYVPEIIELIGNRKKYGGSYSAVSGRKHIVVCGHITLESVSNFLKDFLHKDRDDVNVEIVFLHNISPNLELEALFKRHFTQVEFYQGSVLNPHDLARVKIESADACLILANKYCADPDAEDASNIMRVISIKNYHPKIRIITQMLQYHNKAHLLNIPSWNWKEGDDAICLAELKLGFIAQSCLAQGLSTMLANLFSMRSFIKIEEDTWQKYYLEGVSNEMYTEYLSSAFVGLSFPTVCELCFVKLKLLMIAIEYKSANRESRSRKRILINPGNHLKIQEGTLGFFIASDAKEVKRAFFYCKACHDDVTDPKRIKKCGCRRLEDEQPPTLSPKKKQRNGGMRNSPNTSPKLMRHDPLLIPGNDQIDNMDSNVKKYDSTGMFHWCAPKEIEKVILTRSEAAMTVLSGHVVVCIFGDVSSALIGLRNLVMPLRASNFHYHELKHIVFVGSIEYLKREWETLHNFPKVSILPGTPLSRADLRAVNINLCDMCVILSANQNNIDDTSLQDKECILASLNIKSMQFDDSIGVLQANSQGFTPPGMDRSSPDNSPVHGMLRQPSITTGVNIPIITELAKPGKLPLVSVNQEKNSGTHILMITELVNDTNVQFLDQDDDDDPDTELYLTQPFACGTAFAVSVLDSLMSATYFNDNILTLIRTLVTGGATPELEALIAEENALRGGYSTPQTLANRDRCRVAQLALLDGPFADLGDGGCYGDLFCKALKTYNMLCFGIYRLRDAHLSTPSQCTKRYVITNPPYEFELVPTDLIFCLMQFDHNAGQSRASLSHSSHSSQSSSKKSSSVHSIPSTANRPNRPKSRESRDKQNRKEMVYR
T1 sequence (Q86W47 whole entry N123A, chain 2 of 2): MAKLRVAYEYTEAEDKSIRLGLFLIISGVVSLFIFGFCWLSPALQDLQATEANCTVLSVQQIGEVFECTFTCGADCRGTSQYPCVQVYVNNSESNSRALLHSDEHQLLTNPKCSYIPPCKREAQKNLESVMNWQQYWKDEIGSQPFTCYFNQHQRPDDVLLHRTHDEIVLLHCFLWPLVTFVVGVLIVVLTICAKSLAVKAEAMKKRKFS
test-description: patch-clamp electrophysiology (time course of current block); outside-out patches of transfected HEK293 cells perfused with 1 μM ChTX; steps to +100 mV, intracellular 10 μM Ca2+; τon and τoff fitted to a first order bimolecular reaction scheme; KD = [ChTX]/((τoff/τon) − 1)
particulars: one partner purified
recorded-metric: pKd
Numbers only, as −log10 of the molar value.

Can you look up the measured pKd of QFTNVSCTTSKECWSVCQRLHNTSRGKCMNKKCRCYS (charybdotoxin (ChTX), scorpion toxin; also called ChTX; source: bought: Sigma-Aldrich (Art. No. C7802)) [Charybdotoxin] for me?
7.01
